TESTED_TARGET: OATP1B3 (Homo sapiens, UniProt Q9NPD5)
Sequence (Q9NPD5 whole entry): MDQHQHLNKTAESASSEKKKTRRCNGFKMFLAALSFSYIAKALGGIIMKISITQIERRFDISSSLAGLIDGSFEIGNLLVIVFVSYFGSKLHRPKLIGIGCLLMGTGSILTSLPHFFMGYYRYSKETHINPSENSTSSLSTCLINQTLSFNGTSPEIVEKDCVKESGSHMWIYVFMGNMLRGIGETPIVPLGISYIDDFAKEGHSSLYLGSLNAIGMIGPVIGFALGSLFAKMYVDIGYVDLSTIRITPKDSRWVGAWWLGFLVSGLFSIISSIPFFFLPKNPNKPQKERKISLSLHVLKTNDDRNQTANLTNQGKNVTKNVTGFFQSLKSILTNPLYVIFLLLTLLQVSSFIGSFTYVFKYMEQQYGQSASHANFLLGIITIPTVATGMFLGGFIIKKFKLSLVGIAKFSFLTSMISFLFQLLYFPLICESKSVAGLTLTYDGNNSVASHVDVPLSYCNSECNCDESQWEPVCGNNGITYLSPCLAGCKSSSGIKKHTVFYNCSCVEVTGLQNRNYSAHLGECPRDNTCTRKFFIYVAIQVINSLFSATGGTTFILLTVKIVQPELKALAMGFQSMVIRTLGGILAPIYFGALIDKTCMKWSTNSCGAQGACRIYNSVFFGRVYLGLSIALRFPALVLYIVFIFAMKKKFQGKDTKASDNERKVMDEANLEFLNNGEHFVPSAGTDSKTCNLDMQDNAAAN
TEST: Transporter inhibition using transfected HEK293 cells
RUN_CONDITIONS: human, HEK293 cells stably transfected with OATP1B3, pH 7.4, probe rosuvastatin (0.5 µM)
pIC50: −log10 of the molar value.
ENDPOINT_LABEL: pIC50

Task: Name the recorded pIC50 for COc1cccc2[nH]c(C(=O)N[C@@H](CC(C)C)C(=O)N[C@@H](C[C@@H]3CCNC3=O)C(=O)CO)cc12 .
Result: < 4.70

====

TEST: Dog pharmacokinetic study
RUN_CONDITIONS: male, Beagle, dog, plasma, iv, CLp, dog IV (n=2, range); PF-07304814 […], PF-00835231 1.0mg/kg
ENDPOINT_LABEL: clearance (mL/min/kg)
Reply with just the number (in mL/min/kg).

Task: Name the recorded clearance for COc1cccc2[nH]c(C(=O)N[C@@H](CC(C)C)C(=O)N[C@@H](C[C@@H]3CCNC3=O)C(=O)COP(=O)(O)O)cc12 .
Result: 517

All values here come from paper PMC8523698.
